B1: myc-tagged human ARMC5 (pcDNA3.1-myc-hARMC5), wild type [human] / FLAG-SREBF1(N), N-terminus of mouse SREBF1, from pcDNA3.1-FLAG-Srebf1(N) in HEK293T [mouse] (parent complex)
chain 1: MAAAKPTLTDSLSFCLAQLAAAAGEALGGEKDPATNETPLSRALLALRTRHIKAAGGIERFRARGGLRPLLALLRRAAAAGSAPSQAGPGSAPSSAASGASSPAPASGPAPSAVSSSSPTPPVRLRKTLDLALSILADCCTEGACRTEVRRLGGILPLVTILQCMKTDSIQNRTARALGNLAMEPESCGDIHCAGAVPLLVESLTACQDSQCLQSVVRALRNLADSPQHRLALAQQGAVRPLAELLATAPDAALTLALVRALLELSRGCSRACAEQLSLGGGLGPLVSLASHPKRAVREGTILILANLCAQGLIRPALGNAGGVEVLVDELRQRRDPNGASPTSQQPLVRAVCLLCREAINRARLRDAGGLDLLMGLLRDPRASAWHPRIVAALVGFLYDTGALGRLQALGLVPLLAGQLCGEAGEEEEEGREAASWDFPEERTPERAQGGSFRSLRSWLISEGYATGPDDISPDWSPEQCPPEPMEPASPAPTPTSLRAPRTQRTPGRSPAAAIEEPWGREGPALLLLSRFSQAPDPSGALVTGPALYGLLTYVTGAPGPPSPRALRILSRLTCNPACLEAFVRSYGAALLRAWLVLGVAPDDWPAPRARPTLHSRHRELGERLLQNLTVQAESPFGVGALTHLLLSGSPEDRVACALTLPFICRKPSLWRRLLLEQGGLRLLLAALTRPAPHPLFLFFAADSLSCLQDLVSPTVSPAVPQAVPMDLDSPSPCLYEPLLGPAPVPAPDLHFLLDSGLQLPAQRAASATASPFFRALLSGSFAEAQMDLVPLRGLSPGAAWPVLHHLHGCRGCGAALGPVPPPGQPLLGSEAEEALEAAGRFLLPGLEEELEEAVGRIHLGPQGGPESVGEVFRLGRPRLAAHCARWTLGSEQCPRKRGLALVGLVEAAGEEAGPLTEALLAVVMGIELGARVPA
chain 2: DELAFGEAALEQTLAEMCELDTAVLNDIEDMLQLINNQDSDFPGLFDAPYAGGETGDTGPSSPGANSPESFSSASLASSLEAFLGGPKVTPAPLSPPPSAPAALKMYPSVSPFSPGPGIKEEPVPLTILQPAAPQPSPGTLLPPSFPAPPVQLSPAPVLGYSSLPSGFSGTLPGNTQQPPSSLPLAPAPGVLPTPALHTQVQSLASQQPLPASAAPRTNTVTSQVQQVPVVLQPHFIKADSLLLTAVKTDAGATVKTAGISTLAPGTAVQAGPLQTLVSGGTILATVPLVVDTDKLPIHRLAAGSKALGSAQSRGEKRTAHNAIEKRYRSSINDKIVELKDLVVGTEAKLNKSAVLRKAIDYIRFLQHSNQKLKQENLTLRSAHKSKSLKDLVSACGSGGGTDVSMEGMKPEVVETLTPPPSDAGSPSQSSPLSFGSRASSSGGSDSEPDSP

variants of: B1; assay: co-immunoprecipitation (anti-FLAG IP) with western blot densitometry; HEK293T cells; n = 3; read off a plot
Quantity Measured: response

[[record]]
mutations = "chain 1 R362L"
readout_value = "~0.075 A.U."


// field: response; key: chain 1 R315W ; value = ~0.12 A.U.

So, chain 1 L754P ? Its response was ~0.31 A.U.

// sample chain 1 R898W , its response was ~0.3 A.U.

Note to self: response recorded for chain 1 L331P was ~0.12 A.U.
